Tested on: HOP-62
Test: NCI tumour cell line growth inhibition, 48 h
The source made the active and inactive calls. Cut-off read from the data, not from the text of the source: active = GI50 up to about 1.1 µM and inactive = higher.
Outcome field: choose from YES for active, NO for inactive

{"columns": ["Molecule", "Label"],
 "data": [
  ["O=C(c1ccc(Cl)cc1)N(C(=S)N1CCN(c2ccccn2)CC1)C1CCCCC1", "NO"],
  ["N#CC12C(=O)N3C(=NC(c4ccccc4)NC3c3ccccc3)C1(C#N)C(c1ccccc1)NC1=C2CCC1 (stereo not drawn)", "NO"],
  ["COc1ccc(NC(=O)CC(=O)N/N=C/c2ccc(N(CCC#N)S(C)(=O)=O)cc2)cc1", "NO"],
  ["COC1/C=C(C)/C=C/C(C)/C=C/C(=O)OC(/C(C)=C/C=C(\\C)CNC(=O)[C@H](CO)NC=O)C(C)/C=C/C=C/C(OC)CC/C=C(C)/C=C/C1 (stereo partly drawn)", "YES"],
  ["COc1cccc(/C=C/C(=O)c2sc(C(N)=S)nc2C)c1O", "NO"]
]}

Record request — test call for Cc1ccc2oc(=O)c(-c3ccccc3)nc2c1
NO

For O=S(=O)(N/C(=N\O)Nc1ccc(Cl)cc1)c1cc2ccccc2s1 , what call appears in the results of this test?
NO

What outcome does the record of this test show for COC(=O)C1(F)C(=O)NC(=O)NC1O (stereo not drawn) ?
NO

Which outcome was assigned to Cc1c(/N=N/c2ccc(Cl)cc2)c(C)n(C2OC(CO)C(O)C(O)C2O)c(=S)c1C#N (stereo not drawn) in this test?
NO

What was the test verdict on CCc1c(Cc2[nH]c(Cc3[nH]c(C=O)c(C)c3CC)c(CC)c2CC)[nH]c(C=O)c1C ?
NO

Fill in: this test's call for CC(SC1=CC(=O)c2c(O)ccc(O)c2C1=O)C(=O)O (stereo not drawn) is ___
NO

Record lookup: outcome of this test for BC(=O)NC(CC(C)C)C(=O)NC1c2ccsc2C(=O)C1O.CN(C)C (stereo not drawn) ?
NO

Called result for CC1=NN(c2ccccc2)C(=O)C12[C@H](c1ccccc1)C2(C#N)C#N (stereo partly drawn)
NO

Entry O=C(CN1CCN(c2ccccc2)CC1)c1ccc2[nH]c(=O)oc2c1 : call = ?
NO

In this assay, the call recorded for C/C(CC(O)(C(F)(F)F)C(F)(F)F)=N/Nc1ccc([N+](=O)[O-])cc1[N+](=O)[O-] was what?
NO

Please state the recorded outcome for this molecule: CC(=O)Nc1ccc(S(=O)(=O)N=S(C)C)cc1
NO

====

Test system: SF-539
Assay: NCI tumour cell line growth inhibition, 48 h
Calls of active or inactive are those of the source. No stated cut-off is given here; in the data, active = GI50 up to about 1.1 µM and inactive = higher.
Permitted responses: class 1 (active), class 0 (inactive)

// below: answered compounds
{"columns": ["Compound", "System Under Test", "Label"],
 "data": [
  ["O=c1c2ccccc2n2n1Cc1ccccc1C2", "SF-539", "class 0"],
  ["O=c1c(Cc2ccccc2Cc2c(O)oc3ccccc3c2=O)c(O)oc2ccccc12", "SF-539", "class 0"]
]}

I would be grateful if you could indicate the recorded call for COc1ccc2c(c1)c(=O)c1ccccc1n2/C=C/C(=O)O .
class 0

Please let me know the test result on file for O=C1NC(=S)N/C1=C\c1cccs1 .
class 0

Kindly provide the recorded test outcome for the following compound: CCC(C)C1NC(=O)C(NC(=O)C(CC(C)C)N(C)C(=O)[C@@H]2CC(O)CN2C(=O)[C@H](C)O)C(C)OC(=O)[C@H](Cc2ccc(OC)cc2)N(C)C(=O)[C@@H]2CCCN2C(=O)[C@H](CC(C)C)NC(=O)C(C)C(=O)[C@H](C(C)C)OC(=O)CC1O (stereo not given in full)
class 1

Outcome logged for Nc1ccn(C2(CO)C=C(CO)C(O)C2O)c(=O)n1 (stereo not given) in this assay:
class 0

For Cc1c(C(=O)/C=C/c2c(Cl)cccc2Cl)c(=O)n(-c2ccccc2)n1C , what call appears in the results of this test?
class 0

What was the test verdict on CC(C)C1CCC/C=C/C=C/C=C/C=C/C(OC2OC(C)C(O)C(N)C2O)CC2OC(O)(CC(O)CC(O)C(O)CCC(=O)O1)CC(O)C2C(=O)O (stereo not given) ?
class 0

Please state the recorded outcome for this compound: C[C@]12CC[C@H](O)C[C@H]1CC[C@@H]1[C@@H]2CC[C@]2(C)[C@@H](C3=CC(=O)OC3)CC[C@]12O
class 1

Would you mind telling me which call this test gave CC/C=C(\C(=C/CC)[N+](=O)[O-])[N+](=O)[O-] ?
class 0

====

Test system: RXF 393
Test: NCI tumour cell line growth inhibition, 48 h
Activity calls are given as the source filed them. Rule as the data show it: active = GI50 up to about 1.1 µM and inactive = higher.
Observation Type: GI50

{"columns": ["Chem Smiles", "GI50"],
 "data": [
  ["O=C(NCCNCCO)N/N=C/c1cccc([N+](=O)[O-])c1", "> 100 µM (inactive)"]
]}

Report GI50 from RXF 393 testing of COc1ccc(OC)c(NS(=O)(=O)c2ccc3nc(C)n(NS(=O)(=O)c4cc(OC)ccc4OC)c(=O)c3c2)c1
> 100 µM (inactive)

Print RXF 393 GI50 for CCC(CC)NC1=C(NC(C)=O)C(=O)c2ccccc2C1=O .
> 50 µM (inactive)

State measured GI50 of the compound COc1cc(/N=C\N(C)C)c2ncccc2c1 with RXF 393.
75.3 µM (inactive)

Report the value of GI50 obtained on RXF 393 for COc1ccc(NC(=O)CC(=O)N/N=C/c2ccc(N(CCC#N)S(C)(=O)=O)cc2)cc1 .
> 100 µM (inactive)

====

System: BT-549
Experiment: NCI tumour cell line growth inhibition, 48 h
The source made the active and inactive calls. No stated cut-off is given here; in the data, active = GI50 up to about 1.1 µM and inactive = higher.
Observation Type: GI50

Worked set:
{"columns": ["Compound", "GI50"],
 "data": [
  ["COc1ccc(OC)c(NS(=O)(=O)c2ccc3nc(C)n(NS(=O)(=O)c4cc(OC)ccc4OC)c(=O)c3c2)c1", "70.1 µM (inactive)"],
  ["COc1ccc(NC2Oc3cc4c(cc3C(c3cc(OC)c(O)c(OC)c3)C2C)OCO4)cc1 (configuration not stated)", "10.4 µM (inactive)"],
  ["Cn1cncc1CC1COC(=O)C1C(O)c1ccccc1 (configuration not stated)", "> 100 µM (inactive)"],
  ["NC(=O)c1[nH]nc(C2OC(CO)C(O)C2O)c1O (configuration not stated)", "182 µM (inactive)"],
  ["CCOC(=O)C1C2CCC1CC(=NNc1ccc([N+](=O)[O-])cc1[N+](=O)[O-])C2 (configuration not stated)", "> 50 µM (inactive)"]
]}

Give recorded GI50. C1CSCCSCCCSCCSCCCSCCSCCCSCCSC1
> 100 µM (inactive)

Return GI50 (reported value) for this compound: CC12Nc3c(Cl)cc(Cl)cc3N1C(=O)c1ccccc12 (configuration not stated)
71.6 µM (inactive)

In one line, give reported GI50 of the entry N#Cc1c(N)c(-c2ccc(Cl)cc2)c(F)c2ccccc12 .
> 100 µM (inactive)

Please look at this compound and report its GI50: CC1=C(C(=O)NC2CCCCC2)CC(C(=O)NC2CCCCC2)=C(C)N1
> 100 µM (inactive)

====

Tested on: XF498
Assay: NCI tumour cell line growth inhibition, 48 h
The source made the active and inactive calls. No stated cut-off is given here; in the data, active = GI50 up to about 1.1 µM and inactive = higher.
Please state which outcome applies, choosing from Yes (active), No (inactive)

{"columns": ["Molecule", "Label"],
 "data": [
  ["COC(=O)Cc1cc(=O)oc2c1C(=O)CCC2", "No"],
  ["O=C1NC2C(=CC(O)C(O)C2O)c2cc3c(cc21)OCO3 (stereo not given)", "Yes"],
  ["CC1=N/C(=C/c2ccc3c(c2)OCO3)C(=O)O1", "No"],
  ["O=C1c2ccccc2C(=O)c2sc(Nc3ccc([N+](=O)[O-])cc3)nc21", "No"]
]}

Alright, here's another molecule for you.
I would be grateful if you could indicate the recorded call for COC(=O)C(/C(=N/N)C(=O)Nc1cc(Cl)ccc1Cl)c1nc2ccc([N+](=O)[O-])cc2nc1O (stereo not given) .
No

====

Test system: SR
Test: NCI tumour cell line growth inhibition, 48 h
Active and inactive are the calls of the source. Cut-off read from the data, not from the text of the source: active = GI50 up to about 1.1 µM and inactive = higher.
Choose the fitting class; nothing outside True for active, False for inactive is accepted.

{"columns": ["Molecule", "Label"],
 "data": [
  ["O=C(O[C@H](/C=C/c1ccccc1)P1(=O)N(Cc2ccccc2)[C@H]2CCCC[C@@H]2N1Cc1ccccc1)c1ccccc1", "False"],
  ["CC(C)/C(=N\\[N+](C)(C)C)c1ccccc1", "False"],
  ["COc1ccc(C2C=C(c3ccccc3)Nc3nnnn32)cc1 (stereo not drawn)", "False"]
]}

Record lookup: outcome of this test for c1cc2c(ncc3cscc32)s1 ?
False

Would you mind telling me which call this test gave O=C1NC(N2CCCC(CO)C2)=N/C1=C\c1ccc(O)cc1 (stereo not drawn) ?
False

====

System: COLO 205
Test: NCI tumour cell line growth inhibition, 48 h
Calls of active or inactive are those of the source. Rule as the data show it: active = GI50 up to about 1.1 µM and inactive = higher.
Observation Type: GI50

Below, each entry is followed by its recorded GI50 result.
{"columns": ["Compound", "GI50"],
 "data": [
  ["CS/C=C\\C(=O)O[C@H]1C[C@@H]2[C@@H](O)c3occ(C)c3C[C@]2(C)[C@@H](C)C1", "17.9 µM (inactive)"],
  ["CC(=O)n1nnc2ccc([N+](=O)[O-])cc21", "> 100 µM (inactive)"],
  ["NCC(O)CN.Oc1c(Cl)c(Cl)c(Cl)c(Cl)c1Cl", "21 µM (inactive)"]
]}

Query GI50 for C=C1C2CC[C@@](C)(O)C2[C@H]2OC(=O)C(=C)[C@@H]2C[C@H]1O (stereo not given in full)
15 µM (inactive)

For CSc1nc2c(c(=O)n1C)N=C(c1ccc(Cl)cc1)CC(c1ccccc1)N2 (stereo not given) , write its GI50.
21.7 µM (inactive)

For the compound Cc1cccc(NC(=O)C(=O)C2C(=O)NC(=O)NC2=O)c1C , report GI50.
> 100 µM (inactive)

Give the reported value of GI50 for this record: Oc1ccc2ccccc2c1OCc1nnc(CCCCCCCCc2nnc(COc3c(O)ccc4ccccc34)o2)o1
> 100 µM (inactive)

Write down GI50 measured for item CC1=N/C(=C/c2ccc3c(c2)OCO3)C(=O)O1
> 100 µM (inactive)

Output measured GI50 for this item: CCOC(=O)c1nc2ccc(Cl)cc2c2c1CCO2
> 100 µM (inactive)

// Input: CCOC(=O)/C(=C/c1ccc(N(C)C)cc1)N(CC)CC . Output its GI50 only.
> 100 µM (inactive)
